Consider the following molecules; for each one, report its reporter increase.
# test-system: Wee1-like protein kinase (Homo sapiens) (UniProt P30291)
# test: Wee1 degradation inhibitors, primary screen, cell-based, HeLa, Wee1K328M-luciferase, luminescence (AID 1321);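 further: cells exposed to compound for 20 h before luminescence read; 0% = DMSO alone and 100% = MG132 at 30 µM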
# experimental-context: HeLa Luc-Wee1K328M stability, at 5 µM, stronger effect = higher value, 100% = proteasome inhibitor MG132 effect
Hit rate of the full screen: of about 220,000 compounds, about 2,600 (1.2%) were called active. The list comes from a sample in which actives are over-represented; it also holds close analogues and randomly drawn compounds.
One number for each entry, in %.

Would you mind giving reporter increase for every molecule in the list below?
1. O=C(Nc1cccc2ncccc12)C(Cl)(Cl)Cl
2. Fc1ccc(COc2cccc(-c3n[nH]c(=S)o3)c2)cc1
3. Cc1ccc(C(=O)Nc2cccc3ncccc23)cc1[N+](=O)[O-]

Response:
9.1
-0.05
54.1

Would you mind giving reporter increase for every molecule in the list below?
1. COc1cc2[nH]c(=S)n(Cc3ccc(F)cc3)c(=O)c2cc1OC
2. O=C(CN1CCSCC1)N/N=C/c1ccc(Cl)cc1
3. Cc1nc2cccnc2nc1C

Response:
12.6
2.89
6.05

Would you mind giving reporter increase for every molecule in the list below?
1. CCn1c2ccccc2c2cc(NC(=O)COC(=O)c3cc(S(=O)(=O)N4CCCCC4)ccc3Cl)ccc21
2. Cn1c(=O)c(=O)n(C)c2cc(S(=O)(=O)NCCN3CCN(c4ccccc4F)CC3)ccc21
3. Cc1cc(O)c(NC(=O)c2ccc(C)c([N+](=O)[O-])c2)cc1C
4. CC12C(=O)N(c3ccccc3)C(=O)C1C(c1ccccc1)N1CCCN12 (stereo not drawn)
5. COc1ccc([N+](=O)[O-])cc1N(CC(O)CN(CC(C)C)CC(C)C)S(=O)(=O)c1ccc(C)cc1 (stereo not drawn)

Response:
1: 11.6; 2: 3.58; 3: 2.32; 4: 1.06; 5: -0.64

Would you mind giving reporter increase for every molecule in the list below?
1. O=C(COC(=O)c1cc(S(=O)(=O)N2CCCCC2)ccc1Cl)NCc1ccco1
2. Cc1[nH]c2ccccc2c1SCC(=O)Nc1nccs1
3. CC(=O)NCC(O)c1ccc([N+](=O)[O-])cc1 (stereo not drawn)
4. COc1ccc(N2CCN(c3ccc([N+](=O)[O-])nc3)CC2)cc1

Response:
[5.36, -4.02, -2.38, 2.25]

Would you mind giving reporter increase for every molecule in the list below?
1. Cc1ccc(OCC(=O)N/N=C/c2ccncc2)cc1
2. Oc1ccc(-c2nnc(Nc3ccccc3)c3ccccc23)cc1
3. Cc1ccc(COc2ccc(/C=N/NC(=O)CN3CCCCC3)cc2)cc1

Response:
[-0.52, -2.97, 22.3]

Would you mind giving reporter increase for every molecule in the list below?
1. Fc1ccc(COc2ccc(-c3nnco3)cc2)cc1
2. COc1ccccc1N1CCN(CCCCOc2ccc(F)cc2)CC1
3. CCN(CC)CCCN=Cc1c(O)n(-c2ccc(C)cc2)c(=O)c2ccccc12

Response:
16.2
1.24
5.68

Would you mind giving reporter increase for every molecule in the list below?
1. O=C(c1cc(COc2c(F)cccc2F)on1)N1CCSCC1
2. COc1ccccc1N1CCN(c2ccc([N+](=O)[O-])nc2)CC1

Response:
1: -0.41; 2: 12.9

====

# test-system: Wee1-like protein kinase (Homo sapiens)
# test: Wee1 degradation inhibitors, primary screen, cell-based, HeLa, Wee1K328M-luciferase, luminescence (AID 1321)
# experimental-context: HeLa Luc-Wee1K328M stability, at 5 µM, stronger effect = higher value, 100% = proteasome inhibitor MG132 effect
The campaign covered roughly 220,000 compounds. About 2,600 (1.2%) were called active. For the sample, actives were picked, then their nearest neighbours and some compounds at random.
measured-endpoint: reporter increase (%)
Give bare numbers, in %.

NC1=NC(=O)C(Cc2cccc(Cl)c2Cl)S1 (stereo not given)    9.04
Cc1cc(C)c2c(n1)sc1c(=O)n(-c3ccccc3)c(=O)[nH]c12    17.8
COc1ccc(CCn2c(NN=C3CCCC3)nc3c2c(=O)[nH]c(=O)n3C)cc1    -2.59
c1ccc(CN=C2Nc3ccccc3CS2)nc1    10.7
Cc1cccc(N2CCN(Cc3nc(C4CC4)no3)CC2)n1    -3.23
O=C(Nc1ccc2c(c1)OCCO2)c1ccoc1    2.96
CC(CNS(=O)(=O)c1ccc(Br)cc1)CN(C)C (stereo not given)    -0.62
O=C1/C(=C/c2coc3ccc(O)cc3c2=O)SC(=S)N1c1ccccc1    -0.03

Would you mind giving reporter increase for every molecule in the list below?
1. COc1ccc(C2c3ccc(O)cc3Oc3ncn(CCCO)c(=N)c32)cc1OC (stereo not given)
2. CC(=O)c1cccc(CN2CCC(CO)(Cc3ccccc3)CC2)c1
3. Cc1ccccc1Nc1nc(N)nc(CSc2ccccc2)n1
4. Cc1cc(C)c2c(-n3cccc3)c(NC(=O)OCc3ccccc3)sc2n1
5. O=S(=O)(NCc1ccccn1)c1ccc(Br)s1

Response:
2.84
-2.2
5.12
-2.38
9.46

Would you mind giving reporter increase for every molecule in the list below?
1. O=C(N/N=C\c1cc(Br)c(Br)o1)C1COc2ccccc2O1 (stereo not given)
2. O=S(=O)(NCc1ccccn1)c1ccc(F)cc1
3. CCc1ccccc1NC(=O)CSc1nnc(CCNC(=O)OC(C)(C)C)o1
4. O=S(=O)(NCc1cccnc1)c1ccc(Br)s1
5. COc1cccc(OCC(=O)Nc2ccccc2C(N)=O)c1
6. Cc1ccc(Nc2nnc(SCc3ccccc3)s2)cc1
7. Cc1nc(/N=C(\N)NC(=O)NC2CCCCC2)nc2ccccc12
8. Cc1cccc(OCC(=O)NC(=S)Nc2ccccc2N2CCOCC2)c1

Response:
3.79
-3.61
5.87
3.49
0.36
0.21
-1.12
0.28

Would you mind giving reporter increase for every molecule in the list below?
1. CC(C)c1csc(CN2CCC(CO)(Cc3ccccc3)CC2)n1
2. CCOc1ccc(NC(=S)NC(=O)/C=C/c2ccc(OC)cc2)c([N+](=O)[O-])c1
3. Cc1ccc(NC(=S)N2CCCC(c3ccccc3)=N2)cc1
4. Cc1ccc(Nc2nc(N)nc(CSc3nnc(C)s3)n2)cc1

Response:
11.4
9.57
-4.54
9.2

====

# test-system: Wee1-like protein kinase (Homo sapiens) (UniProt P30291)
# test: Wee1 degradation inhibitors, primary screen, cell-based, HeLa, Wee1K328M-luciferase, luminescence (AID 1321);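 further: cells exposed to compound for 20 h before luminescence read; 0% = DMSO alone and 100% = MG132 at 30 µM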
# experimental-context: HeLa Luc-Wee1K328M stability, at 5 µM, 100% = proteasome inhibitor MG132 effect
Out of some 220,000 compounds screened, about 2,600 (1.2%) were called active.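 How the source made its calls: active means activation above the mean of all tested compounds plus 3 SD, set per screening run (cut at about 8.8% in these data); inactive means the rest.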 Shown is part of a subset that was picked to be rich in actives.
Your response should consist of one outcome taken from active, inactive

Query: Each compound tested received a call. Report the one for Cc1c(S(=O)(=O)NCc2ccccc2)c(=O)n(C)c(=O)n1C .
Response: inactive

Query: Each compound tested received a call. Report the one for CC(C)CNC(=O)C(=O)NCc1ccccc1 .
Response: inactive

====

# test-system: Wee1-like protein kinase (Homo sapiens)
# test: Wee1 degradation inhibitors, primary screen, cell-based, HeLa, Wee1K328M-luciferase, luminescence (AID 1321);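 further: cells exposed to compound for 20 h before luminescence read; 0% = DMSO alone and 100% = MG132 at 30 µM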
# experimental-context: HeLa Luc-Wee1K328M stability, at 5 µM, stronger effect = higher value, 100% = proteasome inhibitor MG132 effect
Among all 220,000 compounds or so, about 2,600 (1.2%) were called active. The entries come from a sample that favours actives as a whole.
Consider the following compounds; for each one, report its reporter increase.

Field: example entries. Status: answers known.
COc1ccc(CCNC(=O)C(=O)NCC2CCNCC2)cc1OC    -1.92% (inactive)
COc1ccccc1N(C)S(=O)(=O)c1ccc(C(=O)NC2CCCCCC2)cc1    1.14% (inactive)
Cn1c2ccccc2c2cc(/C=C(\NC(=O)c3ccccc3)C(=O)NCC(=O)O)ccc21    -0.33% (inactive)
Cc1ccc(/C=N/NC(=O)CSc2ccccn2)o1    3.47% (inactive)

Alright, here's another compound for you.
Per the records, this compound ( CCN(CC)CCn1cnc2c1c(=O)n(CCOC(=O)c1cc(OC)c(OC)c(OC)c1)c(=O)n2C ) has reporter increase equal to -2.15% (inactive)

====

# test-system: Wee1-like protein kinase (Homo sapiens)
# test: Wee1 degradation inhibitors, primary screen, cell-based, HeLa, Wee1K328M-luciferase, luminescence (AID 1321);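 further: cells exposed to compound for 20 h before luminescence read; 0% = DMSO alone and 100% = MG132 at 30 µM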
# experimental-context: HeLa Luc-Wee1K328M stability, at 5 µM, stronger effect = higher value, 100% = proteasome inhibitor MG132 effect
The campaign covered roughly 220,000 compounds. About 2,600 (1.2%) were called active. This is one part of a sample in which actives are shown more often than they occur.
measured-endpoint: reporter increase

Field: example entries. Status: answers known.
COCc1cc(=O)oc2cc(NS(=O)(=O)c3ccc(C)cc3)ccc12    5.18% (inactive)
O=c1cc(CSc2ccc(Cl)cc2)nc(N2CCOCC2)[nH]1    4.27% (inactive)
COc1cc(OC)cc(C(=O)NC(=S)N2CCN(c3ccc(C(F)(F)F)cc3[N+](=O)[O-])CC2)c1    12.2% (active)
Cc1cccc(C(=O)NC(=S)N2CCN(c3ccc([N+](=O)[O-])cc3)CC2)c1    -1.67% (inactive)
O=c1cc(CSc2ccccn2)nc(N2CCN(c3ccccc3)CC2)[nH]1    10.3% (active)
COc1cc(/C=C2/C(=O)NN(c3ccc(F)cc3)C2=O)cc([N+](=O)[O-])c1O    -0.14% (inactive)
O=C(Nc1cccc(C(F)(F)F)c1)c1ccc(N2CCNCC2)c([N+](=O)[O-])c1    1.22% (inactive)
CCOC(=O)c1[nH]c(C)c(C(=O)OCC(=O)N2c3ccccc3CC2C)c1C (stereo not given)    15.6% (active)

Would you mind giving reporter increase for every compound in the list below?
1. O=C(CCl)Nc1cccc(CP(=O)(c2ccccc2)c2ccccc2)c1
2. Cc1cc(=O)[nH]c(SCC(=O)N2c3ccccc3CC2C)n1 (stereo not given)

Response:
1: 1.71% (inactive); 2: -2.08% (inactive)
